system: P. aeruginosa expressing IMP-1, efflux+ (MB9798); type: cell-based, Pseudomonas aeruginosa; conditions: ratio MITC95 PA_9798/MITC95 PA_9799
Measured Attribute: Efflux ratio
Respond using a number only.

Illustrative cases are given below, each with its answer.
Smiles Text: CCOC(=O)N1CC(S(=O)(=O)c2ccc(-c3cccc4[nH]c(N)nc34)c(-c3nn[nH]n3)c2S(N)(=O)=O)C1
Efflux ratio: 64.00
//
Smiles Text: NS(=O)(=O)c1c(S(=O)(=O)C2CNC2)ccc(-c2cccc3[nH]cnc23)c1-c1nn[nH]n1
Efflux ratio: 4.00
//
Smiles Text: Cn1c(N)nc2cccc(-c3ccc(S(=O)(=O)C4CNC4)c(S(N)(=O)=O)c3-c3nn[nH]n3)c21
Efflux ratio: 4.00
//
Smiles Text: NC[C@@H](O)CS(=O)(=O)c1ccc(-c2cccc3[nH]cnc23)c(-c2nn[nH]n2)c1S(N)(=O)=O
Efflux ratio: 1.00
//
Smiles Text: NCCS(=O)(=O)c1ccc(-c2cccc3[nH]c([C@H](N)CN)nc23)c(-c2nn[nH]n2)c1S(N)(=O)=O
Efflux ratio: 2.00

Lab note: measured Efflux ratio of COC(=O)c1cccc(-c2ccc(S(=O)(=O)CCN)c(S(N)(=O)=O)c2-c2nn[nH]n2)c1NCCN was 15.99

Entry NCCS(=O)(=O)c1ccc(-c2ccnc3c2CCCC3)c(-c2nn[nH]n2)c1S(N)(=O)=O ; Efflux ratio = 8.00
